- Tested on: MOLT-4 leukemia
- assayRemarks: NCI tumour cell line growth inhibition, 48 h
This listing pairs compounds with measured TGI.

Worked examples follow.
recordsmiles=CN(C)[C@@H]1C(=O)C(C(=O)NCNCCCC(=O)O)=C(O)[C@@]2(O)C(=O)C3=C(O)c4c(O)cccc4[C@@](C)(O)[C@H]3C[C@@H]12 testvalue="> 100 µM"
recordsmiles=Cn1c2ccccc2c(=O)c2c(O)cc3c(c21)C=CC1(CCCC1)O3 testvalue="> 100 µM"
recordsmiles=COc1ccc(/C=C2\N=C(c3ccccc3)N(Nc3nnc(NN4C(=O)/C(=C/c5ccc(OC)cc5)N=C4c4ccccc4)c4ccccc34)C2=O)cc1 testvalue="> 100 µM"

// query TGI value for entry O=c1oc2ccccc2cc1-c1nnc(-c2ccccc2)s1
> 100 µM

Next up: CCOC(=O)c1c2c(c(O)c3ccccc3c(O)n(-c3ccc(C)cc3)c1C)C(=O)C=CC2=O
29.4 µM
